Origin of measurements: patent US20180185450A1

targetUnderTest: human GLP-1 receptor (human, UniProt P43220 24-463)
measurementProtocol: cell-based or functional assay
measuredAttribute: EC50 hGLP-1R (cAMP) (pM)

binder	valueUnits	measValue
HXQGTFTSDLSKQKDSKAAQDFIEWLKAGGPSSGAPPPS (dSer at 2; K(γE-x53) at 14; C-terminal NH2) [SEQ ID NO: 30]	pM	3.2
HXQGTFTSDLSKQKDEQRAKLFIEWLKAXGPSSGAPPPS (Aib at 2; K(γE-x70) at 14; dAla at 29; C-terminal NH2) [SEQ ID NO: 200]	pM	4.6
HXQGTFTSDLSKQKESRAAQDFIEWLKAGGPSSGAPPPS (dSer at 2; K(βA-βA-x70) at 14; C-terminal NH2) [SEQ ID NO: 54]	pM	4.8
HXQGTFTSDLSKQKDSKAAQDFIEWLKSGGPSSGAPPPS (dSer at 2; K(γE-x53) at 14; C-terminal NH2) [SEQ ID NO: 173]	pM	5.7
HXQGTFTSDLSKQKESKAAQDFIEWLKAGGPSSGAPPPS (dSer at 2; K(γE-x53) at 14; C-terminal NH2) [SEQ ID NO: 24]	pM	1.9
HXQGTFTSDLSKQKESLAAQDFIEWLKAGGPSSGAPPPS (dSer at 2; K(γE-x53) at 14; C-terminal NH2) [SEQ ID NO: 150]	pM	6
